assay: Drug repurposing screens with cells derived from glioblastoma tumor samples (AID 1345199); conditions: GBM patient neurospheres viability, ATP luminescence, 48 h; at 21.2 µM (top of the series); tumour line B; note: % is set by controls: 0 for no effect and ±100 for the full control effect; nearly all actives have a fitted effect of over 40% in size
Results filed as inconclusive are left out. Activity calls are given as the source filed them. Calls come from the whole dose curve; as a rule, active = well fitted inhibition curve with a large enough effect; inconclusive = small, poorly fitted or top-dose-only effect; inactive = flat fitted curve, though single readings scatter.
Recorded Metric: activity, negative = cell killing

INSERT INTO assay_data (molecule, obs_value) VALUES
  ('COc1cc(NS(=O)(=O)c2ccc(N)cc2)nc(OC)n1', '-12.9% (inactive)'),
  ('CCCCOc1ccc(CC(=O)NO)cc1', '-16.2% (inactive)'),
  ('CCC(=O)O[C@]1(C(=O)SCF)[C@H](C)C[C@H]2[C@@H]3C[C@H](F)C4=CC(=O)C=C[C@]4(C)[C@@]3(F)[C@@H](O)C[C@@]21C', '-18.7% (inactive)'),
  ('COc1cnc(NS(=O)(=O)c2ccc(N)cc2)nc1', '-19.1% (inactive)'),
  ('CC(C)(Sc1cc(C(C)(C)C)c(O)c(C(C)(C)C)c1)Sc1cc(C(C)(C)C)c(O)c(C(C)(C)C)c1', '-22% (inactive)'),
  ('Cc1onc(-c2ccccc2Cl)c1C(=O)N[C@@H]1C(=O)N2[C@@H]1SC(C)(C)[C@@H]2C(=O)O', '-1.92% (inactive)'),
  ('CCn1cc(C(=O)O)c(=O)c2cc(F)c(N3CCNCC3)nc21', '-1.31% (inactive)'),
  ('O=C(O)c1cn(C2CC2)c2cc(N3CCNCC3)c(F)cc2c1=O', '-18.6% (inactive)'),
  ('NS(=O)(=O)c1cc2c(cc1Cl)NC(C(Cl)Cl)NS2(=O)=O (centres undefined)', '-4.6% (inactive)'),
  ('Cn1c(=O)c2c(ncn2CC(O)CO)n(C)c1=O (centres undefined)', '1.11% (inactive)'),
  ('COc1ccccc1OCC(O)COC(N)=O (centres undefined)', '-3.25% (inactive)'),
  ('CCn1cc(C(=O)O)c(=O)c2cc(F)c(N3CCNCC3)cc21', '-7.83% (inactive)'),
  ('C[C@@H]1C[C@H]2[C@@H]3CCC4=CC(=O)C=C[C@]4(C)[C@@]3(Cl)[C@@H](O)C[C@]2(C)[C@@]1(OC(=O)c1ccco1)C(=O)CCl', '-9.13% (inactive)'),
  ('CS(=O)(=O)c1ccc([C@@H](O)[C@@H](CO)NC(=O)C(Cl)Cl)cc1', '-9.12% (inactive)');

* * *

system: ICS; assay: qHTS profiling for inhibitors of Plasmodium falciparum proliferation (AID 504749); note: nearly all actives have a fitted effect of over 60% in size; conditions: P. falciparum in erythrocytes, SYBR Green DNA, 72 h; series mostly up to 28.7 µM
Inconclusive results are not listed. The source made the active and inactive calls. Calls follow the shape of the dose curve; as a rule, active = well fitted inhibition curve with a large enough effect; inconclusive = small, poorly fitted or top-dose-only effect; inactive = flat fitted curve, though single readings scatter.
Outcomes: active, inactive

INSERT INTO measurements (molecule, answer_label) VALUES
  ('CCOC(=O)c1ccc(OC(=O)CCCCCN=C(N)N)cc1', 'active'),
  ('S=P(N1CC1)(N1CC1)N1CC1', 'inactive'),
  ('C[C@]12C=CC(=O)C=C1CC[C@@H]1[C@@H]2C(=O)C[C@@]2(C)[C@H]1CC[C@]2(O)C(=O)CO', 'inactive'),
  ('CC(C)Cn1cnc2c(N)nc3ccccc3c21', 'inactive'),
  ('NC(=O)N1c2ccccc2CC(=O)c2ccccc21', 'inactive'),
  ('COC(=O)Nc1nc2ccc(Sc3ccccc3)cc2[nH]1', 'inactive'),
  ('Cn1nnc2c(C(N)=O)ncn2c1=O', 'inactive'),
  ('Cc1oc(=O)oc1CN1CCN(c2cc3c(cc2F)c(=O)c(C(=O)O)c2n3C(C)S2)CC1 (configuration not stated)', 'active'),
  ('NCCCC(O)(P(=O)(O)O)P(=O)(O)O', 'inactive'),
  ('CCCCCCNC(=O)n1cc(F)c(=O)[nH]c1=O', 'active'),
  ('CC(=O)Oc1ccccc1C(=O)Nc1ncc([N+](=O)[O-])s1', 'active'),
  ('COc1ncnc(NS(=O)(=O)c2ccc(N)cc2)c1OC', 'inactive'),
  ('CCCc1nc(C)c2c(=O)[nH]c(-c3cc(S(=O)(=O)N4CCN(CC)CC4)ccc3OCC)nn12', 'active'),
  ('CC(C)NCC(O)c1ccc(NS(C)(=O)=O)cc1 (configuration not stated)', 'inactive'),
  ('CN1CCN(c2c(F)cc3c(=O)c(C(=O)O)cn(CCF)c3c2F)CC1', 'inactive'),
  ('CCc1c2c(nc3ccc(OC(=O)N4CCC(N5CCCCC5)CC4)cc13)-c1cc3c(c(=O)n1C2)COC(=O)[C@]3(O)CC', 'inactive'),
  ('CCCc1cc(C(N)=S)ccn1', 'inactive'),
  ('N[C@@H](C(=O)N[C@@H]1C(=O)N2C(C(=O)O)=C(Cl)CS[C@H]12)c1ccccc1', 'inactive'),
  ('NC(N)=NC(N)=NCCc1ccccc1', 'inactive'),
  ('COC(=O)Nc1nc2ccc(C(=O)c3ccccc3)cc2[nH]1', 'inactive'),
  ('CN(CCOc1ccc(CC2SC(=O)NC2=O)cc1)c1ccccn1 (configuration not stated)', 'inactive'),
  ('CNC1CCCN(c2c(F)cc3c(=O)c(C(=O)O)cn(C4CC4)c3c2OC)C1 (configuration not stated)', 'inactive'),
  ('Nc1nc(N)c2nc(CNc3ccc(C(=O)NC(CCC(=O)O)C(=O)O)cc3)cnc2n1 (configuration not stated)', 'inactive'),
  ('CC(C)(Sc1cc(C(C)(C)C)c(O)c(C(C)(C)C)c1)Sc1cc(C(C)(C)C)c(O)c(C(C)(C)C)c1', 'active'),
  ('CN(C)c1ccc(C(=C2C=CC(=[N+](C)C)C=C2)c2ccc(N(C)C)cc2)cc1', 'active'),
  ('Nc1nc(N)nc(-c2cc(Cl)ccc2Cl)n1', 'inactive'),
  ('COc1cc([C@@H]2c3cc4c(cc3[C@H](O)[C@H]3COC(=O)[C@H]23)OCO4)cc(OC)c1OC', 'active'),
  ('CNC(=O)c1cc(Oc2ccc(NC(=O)Nc3ccc(Cl)c(C(F)(F)F)c3)cc2)ccn1', 'active'),
  ('CCCN[C@H]1CCc2nc(N)sc2C1', 'inactive'),
  ('C[C@@H](NCCCc1cccc(C(F)(F)F)c1)c1cccc2ccccc12', 'active'),
  ('COc1cc2c(Nc3ccc(Br)cc3F)ncnc2cc1OCC1CCN(C)CC1', 'active'),
  ('CCOc1cc(N)c(Cl)cc1C(=O)NCC1CN(Cc2ccc(F)cc2)CCO1 (configuration not stated)', 'active'),
  ('Cc1cccc(N(C)C(=S)Oc2ccc3ccccc3c2)c1', 'inactive'),
  ('O=NN(CCCl)C(=O)NC1CCCCC1', 'inactive'),
  ('Cc1cccc(Nc2ccncc2S(=O)(=O)NC(=O)NC(C)C)c1', 'inactive'),
  ('COc1nc(N)nc2c1ncn2[C@@H]1O[C@H](CO)[C@@H](O)[C@@H]1O', 'inactive'),
  ('O=S(=O)(O)CCS', 'inactive'),
  ('Nc1ccc(S(=O)(=O)Nc2ccccn2)cc1', 'inactive'),
  ('O=C(O)c1cc(=O)[nH]c(=O)[nH]1', 'inactive'),
  ('Cc1ccnc2c1NC(=O)c1cccnc1N2C1CC1', 'inactive'),
  ('COc1cc(NCc2ccc3nc(N)nc(N)c3c2C)cc(OC)c1OC', 'active'),
  ('CCc1cc(C(N)=S)ccn1', 'inactive'),
  ('O=C(O)c1cn(C2CC2)c2cc(N3CCNCC3)c(F)cc2c1=O', 'active'),
  ('CC(C)OC(=O)C(C(=O)OC(C)C)=C1SC=CS1', 'inactive'),
  ('N=C(N)c1ccc(OCCCCCOc2ccc(C(=N)N)cc2)cc1', 'active'),
  ('CNCC[C@H](Oc1cccc2ccccc12)c1cccs1', 'active'),
  ('CC[C@H](NC(C)C)[C@H](O)c1ccc(O)c2[nH]c(=O)ccc12', 'inactive');

Hey, just so you know, these numbers are from PubChem BioAssay (NCATS).
